These data points were gathered from the supplement of paper PMC13380429.

System: HepG2
experiment description: cell viability relative to DMSO; higher = less toxic
test conditions: 72 h; 100 nM
Here, each record is paired with measured cell viability data.
Respond with the bare value in %.

A selection of reference data follows.
| compound | endpoint unit | cell viability |
| --- | --- | --- |
| CN(C)/C=N/c1c(I)cc(I)c(CCC(=O)O)c1I | % | 116 |
| Cc1ccc(S(=O)(=O)Nc2nc3ccccc3nc2Nc2ccc3nsnc3c2)cc1 | % | 90.9 |
| CCCN(C/C=C/I)C1CCc2cccc(O)c2C1 (stereo not drawn) [8-hydroxy-PIPAT] | % | 111 |
| CN1C(=O)/C(=C2/C(=O)Nc3ccccc32)c2ccccc21 | % | 90.6 |
| NS(=O)(=O)OC[C@@H]1C[C@@H](n2ccc3c(N[C@H]4CCc5ccccc54)ncnc32)C[C@@H]1O | % | 77.6 |
| COc1cc2c(Oc3ccc(NC(=O)C4(C(=O)Nc5ccc(F)cc5)CC4)cc3F)ccnc2cc1OCCCN1CCOCC1 | % | 101 |
| CN1CCC(Nc2ncc3ncnc(Nc4ccc(F)c(Cl)c4)c3n2)CC1 | % | 98.8 |

Turning to the following compound.
What cell viability appears in the records for this compound with HepG2? O=C(O)C1=CO[C@@H](O[C@@H]2O[C@H](CO)[C@@H](O)[C@H](O)[C@H]2O)[C@@H]2C(CO)=CC[C@H]12 102

----------
Measured cell viability, listed per entry.
System: HepG2
experiment description: cell viability relative to DMSO; higher = less toxic
test conditions: 72 h; 10000 nM
Form entry: value (%) — number only.

| compound | endpoint unit | measurement |
| --- | --- | --- |
| COCCN1CCN(Cc2ccc(-c3n[nH]c4c3C(=O)c3c(NC(=O)NN5CCOCC5)cccc3-4)cc2)CC1 | % | 11.3 |
| Nc1ncnc2c1c(-c1ccc(Cl)cc1)nn2-c1cccc(-c2cnnn2Cc2cccc(-c3ccccc3)c2)c1 | % | 111 |
| Cn1nccc1Nc1nccc(-c2ccn([C@H](CO)c3ccc(Cl)c(F)c3)c(=O)c2)n1 | % | 40.6 |
| O=C1C2C=Nc3ccccc3C2=NN1c1ccc(Cl)cc1 (centres undefined) | % | 102 |
| CCOC(=O)C1=C[C@]2(CC)CCCN3CCc4c(n1c1ccccc41)[C@@H]32 | % | 108 |
| O=C(NCCN1CCOCC1)c1ccc(Cl)cc1 [moclobemide] | % | 103 |

Find the recorded cell viability belonging to Cc1cc(C(C)(C)C)cc(C)c1CC1=NCCN1 and report it. 101

Item COc1ccccc1CC(=N)N1C[C@@H]2C(=O)CCC(c3ccccc3)(c3ccccc3)[C@@H]2C1 has what recorded cell viability? 105

Dear colleague, I am looking for the recorded cell viability of the following compound: CC(=O)OCC1=C(C(=O)O)N2C(=O)[C@@H](NC(=O)CSc3ccncc3)[C@H]2SC1 103

----------
Test system: Vero E6
experiment description: cell viability relative to DMSO; higher = less toxic
test conditions: 72 h; 1000 nM
Measured cell viability, listed per entry for reference.
Give the quantity in %, number only.

| smiles representation | recorded endpoint | measurement |
| --- | --- | --- |
| CN1C(=O)/C(=C2/C(=O)Nc3ccccc32)c2ccccc21 | cell viability | 93.7 |
| C=CCN1C[C@H](C(=O)N(CCCN(C)C)C(=O)NCC)C[C@@H]2c3cccc4[nH]cc(c34)C[C@H]21 | cell viability | 96.1 |
| OC[C@@H](O)[C@@H](O)CO | cell viability | 102 |
| C[C@]1(COc2ccc(N3CCC(Oc4ccc(OC(F)(F)F)cc4)CC3)cc2)Cn2cc([N+](=O)[O-])nc2O1 | cell viability | 102 |
| Nc1c(CC(=O)O)cccc1C(=O)c1ccccc1 | cell viability | 102 |

Returns the measured cell viability for the input molecule. Input: C=CC(=O)N1CCC[C@@H](n2nc(-c3ccc(Oc4ccccc4)cc3)c3c(N)ncnc32)C1 98.7

Fill blank: measured cell viability of the molecule CCN1CCN(Cc2ccc(C(=O)Nc3ccc(C)c(Oc4ccc5c(c4)CC(=O)N5)c3)cc2C(F)(F)F)CC1 is ____. 100

Which cell viability is listed for N[C@@H](CC(=O)N1CCn2c(nnc2C(F)(F)F)C1)Cc1n[nH]c2c(F)c(F)ccc12 ? 98.4

----------
Tested on: HepG2
experiment description: cell viability relative to DMSO; higher = less toxic
test conditions: 72 h; 1000 nM
// reported cell viability for each item listed
Write the answer as a number in %, unit excluded.

Consider the following illustrative entries.
| compound | study system | recorded endpoint | endpoint unit | measurement |
| --- | --- | --- | --- | --- |
| CCCCCCCCCCCCCCCC[n+]1ccn(Cc2ccccc2)c1C [NH125] | HepG2 | cell viability | % | 32.6 |
| Nc1ccc([As](=O)(O)O)cc1 [arsanilic-acid] | HepG2 | cell viability | % | 99.3 |
| NS(=O)(=O)c1cc2c(cc1Cl)NC(C1CC3C=CC1C3)NS2(=O)=O (stereo not given) [cyclothiazide] | HepG2 | cell viability | % | 99.9 |

Could you share which cell viability value was measured for CCCOc1ccc2[nH]c(NC(=O)OC)nc2c1 [oxibendazole] ? 103

# cell viability lookup, item C=CCN1C[C@H](C(=O)N(CCCN(C)C)C(=O)NCC)C[C@@H]2c3cccc4[nH]cc(c34)C[C@H]21 [cabergoline] 92.8

----------
Below is a list of entries, each paired with its recorded relative viability EC50 value.
Test system: Vero E6
experiment description: relative viability EC50 (midpoint between 100% and the lowest measured viability); higher = less toxic
test conditions: 72 h

Completed entries (count: 3):
| compound | measurement |
| --- | --- |
| O=C(O)C(F)(F)C(F)(F)C(F)(F)C(F)(F)C(F)(F)C(F)(F)C(F)(F)F [ammonium-perfluorocaprylate] | > 10 µM |
| O=C(Nc1cc(Cl)cc(Cl)c1O)c1c(O)c(Cl)cc(Cl)c1Cl [oxyclozanide] | > 10 µM |
| CCn1cc(C(=O)O)c(=O)c2cc(F)c(N3CCNCC3)cc21 | > 10 µM |

For the compound COc1cc(C(=O)N2CCC(N3CCN(C)CC3)CC2)ccc1Nc1ncc2c(n1)N(C)c1ccccc1C(=O)N2C , what relative viability EC50 is on record? 2.64 µM

Look up relative viability EC50 for this compound: Nc1nc2c(ncn2[C@@H]2O[C@H](CO)[C@@H](O)[C@H]2O)c(=O)[nH]1 > 10 µM

# relative viability EC50 lookup, item O=C1/C(=C/c2ccccc2)C[C@@]2(O)[C@H]3Cc4ccc(O)c5c4[C@@]2(CCN3CC2CC2)[C@H]1O5 2.88 µM

Which value of relative viability EC50 has been reported for CO[C@H]1/C=C/O[C@@]2(C)Oc3c(C)c(O)c4c(O)c(cc(O)c4c3C2=O)NC(=O)/C(C)=C\C=C\[C@H](C)[C@H](O)[C@@H](C)[C@@H](O)[C@@H](C)[C@H](OC(C)=O)[C@@H]1C in the records? > 10 µM

----------
cell viability values for the compounds below.
Test system: Caco-2
experiment description: cell viability relative to DMSO; higher = less toxic
test conditions: 72 h; 10 nM
Report as a plain number; the unit % is understood.

// worked examples, cell viability included
| compound | endpoint unit | measurement |
| --- | --- | --- |
| Cc1ccc(/C(=C\CN2CCCC2)c2cccc(/C=C/C(=O)O)n2)cc1 | % | 92.3 |
| NC[C@@](O)(c1ccc(Cl)cc1)c1ccc(-c2cn[nH]c2)cc1 | % | 104 |
| C[C@H](NC(=O)[C@@H](Cc1c[nH]c2ccccc12)NC(=O)[C@@H](N)Cc1c[nH]cn1)C(=O)N[C@@H](Cc1c[nH]c2ccccc12)C(=O)N[C@H](Cc1ccccc1)C(=O)N[C@@H](CCCCN)C(N)=O | % | 97 |
| CCn1cc(C(=O)O)c(=O)c2cc(F)c(N3CCNCC3)cc21 | % | 93.9 |
| O=S(=O)(c1ccccc1)N(CC(F)(F)F)c1ccc(C(O)(C(F)(F)F)C(F)(F)F)cc1 | % | 89.8 |

Report cell viability for COC[C@H](C)Oc1cc(O[C@@H](C)Cc2ccccc2)cc(C(=O)Nc2ccc(C(=O)O)cn2)c1 please. 97

// returns reported cell viability for input OC[C@H]1O[C@@H](Oc2cc(O)cc(/C=C/c3ccc(O)cc3)c2)[C@H](O)[C@@H](O)[C@@H]1O 97.2

// cell viability lookup, key: O[C@H]1CC[C@H](Nc2ncc3nc(Nc4c(F)cc(F)cc4F)n([C@H]4CCOC4)c3n2)CC1 102

Using the record for Nc1ncnc2c1c(-c1ccc(Cl)cc1)nn2-c1cccc(-c2cnnn2Cc2cccc(-c3ccccc3)c2)c1 , report its cell viability. 94.7

Please report the recorded cell viability for CCOC(=O)c1ncn2c1CN(C)C(=O)c1cc(N=[N+]=[N-])ccc1-2 . 100

Would you kindly share the measured cell viability for CC(C)C[C@@H](NC(=O)[C@H](Cc1ccccc1)NC(=O)CNC(=O)[C@@H](C)NC(=O)[C@@H](N)Cc1ccc(O)cc1)C(=O)O [BW-180C] ? 96.9

Which measured cell viability value corresponds to Nc1nc2c(ncn2[C@@H]2O[C@H](CO)[C@@H](O)[C@H]2O)c(=O)[nH]1 ? 102

Item under review: CN1CCN(c2nc(C3=C(c4c[nH]c5ccccc45)C(=O)NC3=O)c3ccccc3n2)CC1 . Reported cell viability? 102

Item under review: O=C1/C(=C/c2ccccc2)C[C@@]2(O)[C@H]3Cc4ccc(O)c5c4[C@@]2(CCN3CC2CC2)[C@H]1O5 . Reported cell viability? 101

# get_value(readout='cell viability', item= CCCCCCCC/C=C\CCCCCCCC(=O)NCc1ccc(O)c(OC)c1 ) 100
